Biological target: MGL (Rattus norvegicus)
Construct: one g rat brain was homogenized using a Polytron homogenizer; from tissue; host or cells: rat brain homogenate
Sequence (Q8R431 whole entry): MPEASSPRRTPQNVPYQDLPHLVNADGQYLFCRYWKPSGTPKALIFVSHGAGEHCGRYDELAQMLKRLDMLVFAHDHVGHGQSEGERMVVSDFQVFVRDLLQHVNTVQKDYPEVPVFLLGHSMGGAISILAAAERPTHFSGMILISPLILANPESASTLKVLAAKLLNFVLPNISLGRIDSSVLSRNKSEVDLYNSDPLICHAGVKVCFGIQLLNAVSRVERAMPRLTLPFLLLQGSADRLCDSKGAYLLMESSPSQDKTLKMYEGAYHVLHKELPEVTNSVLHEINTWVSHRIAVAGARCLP
Assay: 2-AG accumulation assay in rat brain homogenate
Assay type: biochemical
Conditions: rat brain homogenate; compound 1 μM; 2-AG accumulation as percent of vehicle; read-out: Rat Brain 2AG % VehCntrl (%) @ 1 μM
Please respond with label 1 when measured 2-AG accumulation, % of vehicle control at 1 µM is strictly beneath 500%, and with label 0 in all other cases.

These recorded examples may help you get a feel for the data.
> print(dat)
                                   compound    group
1  NC(=O)c1ccc(-n2ccc3cc(C(=O)N4CC(N5CCN(C(=O)c6nccs6)CC5)C4)ccc32)cc1 [Cpd 1171]  label 0
2  CCC(C)(C)c1ccc(C(=O)N2CC(N3CCN(C(=O)c4nccs4)CC3)C2)cc1 [Cpd 887]  label 1
3  COc1cc(C(=O)N2CC(N3CCN(C(=O)c4ccccc4)CC3)C2)ccc1-c1ccc(Cl)c(C(F)(F)F)c1 [Cpd 264]  label 1

Please check: 2-AG accumulation, % of vehicle control at 1 µM for O=C(c1ccccc1)N1CCN(C2CN(C(=O)c3cc4ccc(C(F)(F)F)cc4s3)C2)CC1 [Cpd 325] , strictly under 500% or not?
label 1

Please check: 2-AG accumulation, % of vehicle control at 1 µM for Cc1nc(-c2ccc(Cl)cc2)sc1C(=O)N1CC(N2CCN(C(=O)c3nccs3)CC2)C1 [Cpd 489] , strictly under 500% or not?
label 0

Please check: 2-AG accumulation, % of vehicle control at 1 µM for O=C(c1ccccc1)N1CCN(C2CN(C(=O)c3ccc4c(ccn4-c4ccc(F)c(F)c4)c3)C2)CC1 [Cpd 571] , strictly under 500% or not?
label 1

Please check: 2-AG accumulation, % of vehicle control at 1 µM for COc1cc(-n2ccc3cc(C(=O)N4CC(N5CCN(C(=O)c6nccs6)CC5)C4)ccc32)ccn1 [Cpd 1107] , strictly under 500% or not?
label 0

Please check: 2-AG accumulation, % of vehicle control at 1 µM for O=C(c1cscn1)N1CCN(C2CN(C(=O)c3sc4ccc(Cl)cc4c3C(F)(F)F)C2)CC1 [Cpd 673] , strictly under 500% or not?
label 1
